System: NCI-H23 lung
EXPERIMENT_SUMMARY: NCI tumour cell line growth inhibition, 48 h
EXPERIMENTAL_ENDPOINT: TGI

Example results:
- MOLECULE: "Cc1ncc(-c2ccnc(Nc3ccc(S(C)(=O)=O)cc3)n2)n1C(C)C"
  TGI: "7.17 µM"
- MOLECULE: "Cc1ccc(S(=O)(=O)N2CCCSCCN(S(=O)(=O)c3ccc(C)cc3)CCCSCC2)cc1"
  TGI: "> 100 µM"
- MOLECULE: "Nc1c2c(nc3ccccc13)CCCc1ccccc1-2"
  TGI: "> 100 µM"
- MOLECULE: "Cc1cc2c(=O)[nH]c(N)nc2nc1C"
  TGI: "> 100 µM"
- MOLECULE: "O=S(=O)(/N=C(\\NO)Nc1ccc(Cl)cc1)C1CC=C(c2ccon2)S1 (stereo unspecified)"
  TGI: "> 100 µM"

Query :: # assay system NCI-H23 lung: give TGI of Clc1cccc2c1OCC1C(c3ccccc3)=NN(c3ccccc3)C21 (stereo unspecified)
Result :: > 100 µM

Query :: # assay system NCI-H23 lung: give TGI of O=C(COc1ccc(-c2nc3cc(Cl)c(Cl)cc3[nH]2)cc1)N=Nc1c(O)[nH]c2ccccc12
Result :: 15.1 µM

Query :: # assay system NCI-H23 lung: give TGI of CC12CCC(O)CC1=CCC1C2CCC2(C)C(c3cccnc3)=CCC12 (stereo unspecified)
Result :: > 100 µM

Query :: # assay system NCI-H23 lung: give TGI of O=C(Sc1sc(=S)sc1SC(=O)c1ccccc1)c1ccccc1
Result :: > 100 µM

Query :: # assay system NCI-H23 lung: give TGI of N#CCCN(CCC#N)c1ccc(C(N=Nc2ccc(Cl)cc2)=Nc2ccc(Cl)cc2)cc1
Result :: 41.8 µM
